Every entry's value here was drawn from PubChem BioAssay AID1918948.

- Test system: K-562 leukemia growth, % test/control
- Measurement Notes: Anticancer human tumor K-562 cell line growth inhibition;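 note: spheroids exposed to compounds for 7 days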;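 for viability, T/C: 100% = DMSO vehicle wells and lower values mean fewer viable cells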
- Run Conditions: second compound 10 µM; first compound 0.0949 µM; stronger effect = lower value; spheroids with HUVEC and MSC
Quick reference: viability, T/C of the listed items.

Molecule	viability, T/C
Nc1ncn(C2CC(O)C(CO)S2)c(=O)n1 (centres undefined) + NC1CC1c1ccc(-c2cccc(O)c2)cc1	30.5%
O=C(C=Cc1cccc(S(=O)(=O)Nc2ccccc2)c1)NO + NC1CCC(NC2CC2c2ccccc2)CC1	61.2%
COc1cc(C2c3cc4c(cc3C(OC3OC5COC(C)OC5C(O)C3O)C3COC(=O)C23)OCO4)cc(OC)c1O (centres undefined) + NC1CCC(NC2CC2c2ccccc2)CC1	30.4%
CCc1c2c(nc3ccc(O)cc13)-c1cc3c(c(=O)n1C2)COC(=O)[C@]3(O)CC + NC1CCC(NC2CC2c2ccccc2)CC1	0.58%
CCN(c1cc(-c2ccc(CN3CCOCC3)cc2)cc(C(=O)NCc2c(C)cc(C)[nH]c2=O)c1C)C1CCOCC1 + NC1CC1c1ccc(-c2cccc(O)c2)cc1	109%
COc1cc(C2c3cc4c(cc3C(OC3OC5COC(C)OC5C(O)C3O)C3COC(=O)C23)OCO4)cc(OC)c1O (centres undefined) + NC1CC1c1ccc(-c2cccc(O)c2)cc1	34.1%
Nc1ccn(C2OC(CO)C(O)C2(F)F)c(=O)n1 (centres undefined) + NC1CCC(NC2CC2c2ccccc2)CC1	5.09%
NS(=O)(=O)OCC1CC(n2ccc3c(NC4CCc5ccccc54)ncnc32)CC1O (centres undefined) + NC1CC1c1ccc(-c2cccc(O)c2)cc1	21.2%
Nc1ccccc1NC(=O)c1ccc(CNC(=O)OCc2cccnc2)cc1 + NC1CCC(NC2CC2c2ccccc2)CC1	39.9%

---

- Test system: K-562 leukemia growth, % test/control
- Measurement Notes: Anticancer human tumor K-562 cell line growth inhibition;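 note: spheroids exposed to compounds for 7 days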
- Run Conditions: curve of first compound; second compound 3.16 µM; spheroids with HUVEC and MSC
pIC50: −log10 of the molar value.
Measured Parameter: pIC50

Molecule	Measured Parameter	Reported Value
NS(=O)(=O)OCC1CC(n2ccc3c(NC4CCc5ccccc54)ncnc32)CC1O (centres undefined) + NC1CC1c1ccc(-c2cccc(O)c2)cc1	pIC50	> 8.02
CC(C)c1c(-c2ccccc2)nc2c(C#N)c[nH]n2c1=O + NC1CCC(NC2CC2c2ccccc2)CC1	pIC50	< 5.00
CCc1c2c(nc3ccc(O)cc13)-c1cc3c(c(=O)n1C2)COC(=O)[C@]3(O)CC + NC1CCC(NC2CC2c2ccccc2)CC1	pIC50	> 9.02
Cn1ncnc1C1c2n[nH]c(=O)c3cc(F)cc(c23)NC1c1ccc(F)cc1 (centres undefined) + NC1CCC(NC2CC2c2ccccc2)CC1	pIC50	< 7.00

---

- Tested on: K-562 leukemia growth, % test/control
- Measurement Notes: Anticancer human tumor K-562 cell line growth inhibition;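 note: spheroids exposed to compounds for 7 days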
- Run Conditions: curve of first compound; second compound 1 µM; spheroids with HUVEC and MSC
pIC50: −log10 of the molar value.

Compound	pIC50
CC(C)c1c(-c2ccccc2)nc2c(C#N)c[nH]n2c1=O + NC1CCC(NC2CC2c2ccccc2)CC1	< 5.00
COc1cc(Nc2ncc3c(n2)-c2ccc(Cl)cc2C(c2c(F)cccc2OC)=NC3)ccc1C(=O)O + NC1CC1c1ccc(-c2cccc(O)c2)cc1	> 8.50
CCc1c2c(nc3ccc(O)cc13)-c1cc3c(c(=O)n1C2)COC(=O)[C@]3(O)CC + NC1CC1c1ccc(-c2cccc(O)c2)cc1	> 9.02
NS(=O)(=O)OCC1CC(n2ccc3c(NC4CCc5ccccc54)ncnc32)CC1O (stereo not given) + NC1CC1c1ccc(-c2cccc(O)c2)cc1	> 8.02
Nc1ccn(C2OC(CO)C(O)C2(F)F)c(=O)n1 (stereo not given) + NC1CCC(NC2CC2c2ccccc2)CC1	> 9.02

---

- System: K-562 leukemia growth, % test/control
- Measurement Notes: Anticancer human tumor K-562 cell line growth inhibition; active = viability on the fitted dose curve at most 10% of control; inactive = the rest;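 note: spheroids exposed to compounds for 7 days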
- Run Conditions: second compound 0.316 µM; first compound 0.001 µM; spheroids with HUVEC and MSC
Possible outcomes: 1.0 (active), 0.0 (inactive)

Compound	Target Or System	Group Label
CC(C)CC(NC(=O)C(Cc1ccccc1)NC(=O)c1cnccn1)B(O)O (centres undefined) + NC1CC1c1ccc(-c2cccc(O)c2)cc1	K-562 leukemia growth, % test/control	1.0
Cn1ncnc1C1c2n[nH]c(=O)c3cc(F)cc(c23)NC1c1ccc(F)cc1 (centres undefined) + NC1CC1c1ccc(-c2cccc(O)c2)cc1	K-562 leukemia growth, % test/control	0.0
Cn1ncnc1C1c2n[nH]c(=O)c3cc(F)cc(c23)NC1c1ccc(F)cc1 (centres undefined) + NC1CCC(NC2CC2c2ccccc2)CC1	K-562 leukemia growth, % test/control	0.0
CC(C)CC(NC(=O)CNC(=O)c1cc(Cl)ccc1Cl)B1OC(=O)CC(CC(=O)O)(C(=O)O)O1 (centres undefined) + NC1CCC(NC2CC2c2ccccc2)CC1	K-562 leukemia growth, % test/control	0.0

---

Quick reference: IC50 of the listed items.
- Test system: K-562 leukemia growth, % test/control
- Measurement Notes: Anticancer human tumor K-562 cell line growth inhibition;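 note: spheroids exposed to compounds for 7 days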
- Run Conditions: curve of first compound; second compound 1 µM; spheroids with HUVEC and MSC
Measured Parameter: IC50

Compound	Reported Value
Cn1ncnc1C1c2n[nH]c(=O)c3cc(F)cc(c23)NC1c1ccc(F)cc1 (stereo not drawn) + NC1CCC(NC2CC2c2ccccc2)CC1	> 100 nM
O=C(c1cc(Cc2n[nH]c(=O)c3ccccc23)ccc1F)N1CCN(C(=O)C2CC2)CC1 + NC1CCC(NC2CC2c2ccccc2)CC1	> 10000 nM
CCc1c2c(nc3ccc(O)cc13)-c1cc3c(c(=O)n1C2)COC(=O)[C@]3(O)CC + NC1CCC(NC2CC2c2ccccc2)CC1	< 0.949 nM

---

- System: K-562 leukemia growth, % test/control
- Measurement Notes: Anticancer human tumor K-562 cell line growth inhibition;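 note: spheroids exposed to compounds for 7 days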;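 for viability, T/C: 100% = DMSO vehicle wells and lower values mean fewer viable cells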
- Run Conditions: second compound 3.16 µM; first compound 0.001 µM; stronger effect = lower value; spheroids with HUVEC and MSC
Quick reference: viability, T/C of the listed items.
Measured Parameter: viability, T/C (%)

Compound	Measured Parameter	Unit Abbreviation	Reported Value
CC(C)CC(NC(=O)C(Cc1ccccc1)NC(=O)c1cnccn1)B(O)O (centres undefined) + NC1CCC(NC2CC2c2ccccc2)CC1	viability, T/C	%	87.8
Cn1ncnc1C1c2n[nH]c(=O)c3cc(F)cc(c23)NC1c1ccc(F)cc1 (centres undefined) + NC1CC1c1ccc(-c2cccc(O)c2)cc1	viability, T/C	%	100
CC[C@@]1(O)C(=O)OCc2c1cc1n(c2=O)Cc2cc3c(CN(C)C)c(O)ccc3nc2-1 + NC1CC1c1ccc(-c2cccc(O)c2)cc1	viability, T/C	%	99.7
CC(C)CC(NC(=O)CNC(=O)c1cc(Cl)ccc1Cl)B1OC(=O)CC(CC(=O)O)(C(=O)O)O1 (centres undefined) + NC1CCC(NC2CC2c2ccccc2)CC1	viability, T/C	%	98.1

---

- System: K-562 leukemia growth, % test/control
- Measurement Notes: Anticancer human tumor K-562 cell line growth inhibition;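 note: spheroids exposed to compounds for 7 days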;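 for viability, T/C: 100% = DMSO vehicle wells and lower values mean fewer viable cells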
- Run Conditions: second compound 0.1 µM; first compound 0.01 µM; stronger effect = lower value; spheroids with HUVEC and MSC
Criterion: viability, T/C strictly under 70%. Met: Met. Not met: Not met.

Compound	Target Or System	Group Label
CC1COCCN1c1cc(-c2ccnn2C)c2ccnc(-c3ccn[nH]3)c2n1 (centres undefined) + NC1CC1c1ccc(-c2cccc(O)c2)cc1	K-562 leukemia growth, % test/control	Met
CC(C)CC(NC(=O)C(Cc1ccccc1)NC(=O)c1cnccn1)B(O)O (centres undefined) + NC1CCC(NC2CC2c2ccccc2)CC1	K-562 leukemia growth, % test/control	Met
Cn1ncnc1C1c2n[nH]c(=O)c3cc(F)cc(c23)NC1c1ccc(F)cc1 (centres undefined) + NC1CC1c1ccc(-c2cccc(O)c2)cc1	K-562 leukemia growth, % test/control	Not met
COc1cc(Nc2ncc3c(n2)-c2ccc(Cl)cc2C(c2c(F)cccc2OC)=NC3)ccc1C(=O)O + NC1CC1c1ccc(-c2cccc(O)c2)cc1	K-562 leukemia growth, % test/control	Met
CC(C)CC(NC(=O)CNC(=O)c1cc(Cl)ccc1Cl)B1OC(=O)CC(CC(=O)O)(C(=O)O)O1 (centres undefined) + NC1CC1c1ccc(-c2cccc(O)c2)cc1	K-562 leukemia growth, % test/control	Met
CC[C@@]1(O)C(=O)OCc2c1cc1n(c2=O)Cc2cc3c(CN(C)C)c(O)ccc3nc2-1 + NC1CC1c1ccc(-c2cccc(O)c2)cc1	K-562 leukemia growth, % test/control	Met
Cn1ncnc1C1c2n[nH]c(=O)c3cc(F)cc(c23)NC1c1ccc(F)cc1 (centres undefined) + NC1CCC(NC2CC2c2ccccc2)CC1	K-562 leukemia growth, % test/control	Not met
CC[C@@]1(O)C(=O)OCc2c1cc1n(c2=O)Cc2cc3c(CN(C)C)c(O)ccc3nc2-1 + NC1CCC(NC2CC2c2ccccc2)CC1	K-562 leukemia growth, % test/control	Met
COc1cc(Nc2ncc3c(n2)-c2ccc(Cl)cc2C(c2c(F)cccc2OC)=NC3)ccc1C(=O)O + NC1CCC(NC2CC2c2ccccc2)CC1	K-562 leukemia growth, % test/control	Met
